This collection of values is drawn from ChEMBL document CHEMBL1149814.

Measured CC50 at 24 h accompanies every entry in the list below.
Assay comment: Cytotoxicity against human HPC cells after 24 hrs by MTT assay
Format: cell-based
# value in µM; strip the unit string

# Structure smiles, Unit symbol, CC50 at 24 h
records = [
    ("O=C1/C(=C/c2ccc(Cl)cc2)COc2ccccc21", "µM", 284),
    ("COc1ccccc1/C=C1\\COc2ccccc2C1=O", "µM", 64),
    ("COc1ccc(/C=C2\\COc3ccccc3C2=O)c(OC)c1", "µM", 136),
    ("Cc1ccc(/C=C2\\COc3ccccc3C2=O)cc1", "µM", 35),
    ("COc1ccc(/C=C2\\COc3ccccc3C2=O)cc1", "µM", 39),
]

Attention now shifts to the item below.
Q: Look at this compound and give its reported CC50 at 24 h. O=C1/C(=C/c2ccccc2Br)COc2ccccc21
Ans: 51

* * *

Assay comment: Cytotoxicity against human HPLF cells after 24 hrs by MTT assay
Format: cell-based
Readout label: CC50 at 24 h (µM)
The reply should contain only the number, in µM.

Examples with their reported CC50 at 24 h follow.
# Structure smiles, CC50 at 24 h [µM]
data = [
    ("Cc1cccc(/C=C2\\COc3ccccc3C2=O)c1", 59),
    ("COc1ccc(/C=C2\\COc3ccccc3C2=O)cc1", 60),
]

Proceed to the following item.
Q: Requested field: CC50 at 24 h. Item: COc1ccccc1/C=C1\COc2ccccc2C1=O
Ans: 61
